Data provenance: ChEMBL document CHEMBL4184296

In this section, each of the compounds is paired with its reported MTC.
System: HepG2
METHOD SUMMARY: Cytotoxicity against human HepG2 cells assessed as reduction in cell viability after 24 hrs by MTT assay
Format: cell-based
PROTOCOL CONDITIONS: hepg2, 24 h

- SMILES: "CC(C)c1ccc(OCC(=O)NNC(=S)NC(=O)c2cc3cc(Cl)ccc3[nH]2)cc1"
  PREFIX OPERATOR: "="
  MTC / µg/mL: 256
- SMILES: "CC(C)c1ccc(OCC(=O)NNC(=S)NC(=O)c2cccnc2)cc1"
  PREFIX OPERATOR: ">"
  MTC / µg/mL: 256
- SMILES: "Cc1ccc(C(=O)NC(=S)NNC(=O)COc2ccc(C(C)C)cc2)o1"
  PREFIX OPERATOR: ">"
  MTC / µg/mL: 128
- SMILES: "CC(C)c1ccc(OCC(=O)NNC(=S)NC(=O)c2cnco2)cc1"
  PREFIX OPERATOR: "="
  MTC / µg/mL: 64
- SMILES: "CC(C)c1ccc(OCC(=O)NNC(=S)NC(=O)c2ccoc2)cc1"
  PREFIX OPERATOR: "="
  MTC / µg/mL: 16

====

TARGET OF ASSAY: Ribonuclease P protein component (Staphylococcus aureus)
Sequence (P0A0H5 whole entry): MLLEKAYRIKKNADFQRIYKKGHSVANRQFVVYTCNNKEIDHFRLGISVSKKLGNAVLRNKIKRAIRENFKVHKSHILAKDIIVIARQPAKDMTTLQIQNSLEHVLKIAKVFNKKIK
METHOD SUMMARY: Inhibition of Staphylococcus aureus RnpA-mediated mRNA degradation after 15 to 30 mins by ethidium bromide staining based agarose gel electrophoresis
pIC50: −log10 of the molar value.

- SMILES: "CC(C)c1ccc(OCC(=O)NNC(=S)NC(=O)c2coc3ccccc23)cc1"
  TARGET OF ASSAY: "Ribonuclease P protein component (Staphylococcus aureus)"
  PREFIX OPERATOR: "<"
  pIC50: 3.60
- SMILES: "CC(C)c1ccc(OCC(=O)NNC(=S)NC(=O)c2ccc(-c3ccccc3)o2)cc1"
  TARGET OF ASSAY: "Ribonuclease P protein component (Staphylococcus aureus)"
  PREFIX OPERATOR: "="
  pIC50: 4.40
- SMILES: "COc1ccc2cc(C(=O)NC(=S)NNC(=O)COc3ccc(C(C)C)cc3)[nH]c2c1"
  TARGET OF ASSAY: "Ribonuclease P protein component (Staphylococcus aureus)"
  PREFIX OPERATOR: "="
  pIC50: 4.30
- SMILES: "CC(C)c1ccc(OCC(=O)NNC(=S)NC(=O)c2ccoc2)cc1"
  TARGET OF ASSAY: "Ribonuclease P protein component (Staphylococcus aureus)"
  PREFIX OPERATOR: "="
  pIC50: 3.60
- SMILES: "CC(C)c1ccc(OCC(=O)NNC(=S)NC(=O)c2cccs2)cc1"
  TARGET OF ASSAY: "Ribonuclease P protein component (Staphylococcus aureus)"
  PREFIX OPERATOR: "="
  pIC50: 3.60
- SMILES: "CC(C)c1ccc(OCC(=O)NNC(=S)NC(=O)c2ccc[nH]2)cc1"
  TARGET OF ASSAY: "Ribonuclease P protein component (Staphylococcus aureus)"
  PREFIX OPERATOR: "<"
  pIC50: 3.60
- SMILES: "CC(C)c1ccc(OCC(=O)NNC(=S)NC(=O)Cc2ccco2)cc1"
  TARGET OF ASSAY: "Ribonuclease P protein component (Staphylococcus aureus)"
  PREFIX OPERATOR: "="
  pIC50: 4.60
- SMILES: "CC(C)c1ccc(OCC(=O)NNC(=S)NC(=O)c2ccccc2)cc1"
  TARGET OF ASSAY: "Ribonuclease P protein component (Staphylococcus aureus)"
  PREFIX OPERATOR: "<"
  pIC50: 3.30
- SMILES: "Cc1cc(/C=C(/C#N)C(=O)Nc2cccc(Br)c2)c(C)n1-c1ccc(C(=O)O)cc1"
  TARGET OF ASSAY: "Ribonuclease P protein component (Staphylococcus aureus)"
  PREFIX OPERATOR: "="
  pIC50: 4.00
- SMILES: "CC(C)c1ccc(OCC(=O)NNC(=S)NC(=O)c2cc3cc(F)ccc3[nH]2)cc1"
  TARGET OF ASSAY: "Ribonuclease P protein component (Staphylococcus aureus)"
  PREFIX OPERATOR: ">"
  pIC50: 4.30
